Read-out: Tumor necrosis factor receptor superfamily member 6 (Homo sapiens) (UniProt P25445)
Assay: LTEA_HepaRG_FAS: Life Technologies and Expression Analysis (LTEA) Assay for Fas cell surface death receptor (FAS) using HepaRG (AID 2283447)
Conditions: mRNA level, 48 h; actives raise or lower the signal
Calls of active or inactive are those of the source. The calls were made as follows: active = hit-call score of the fitted dose curve at least 0.9, where 1 is the maximum; inactive = score below 0.9.
Classes used: 1 (yes) for active, 0 (no) for inactive

{"columns": ["compound", "qualitative label"],
 "data": [
  ["CC(=NC#N)N(C)Cc1ccc(Cl)nc1", "0 (no)"],
  ["CC1=NNC(=O)N(/N=C/c2cccnc2)C1", "0 (no)"],
  ["CCOP(=S)(Oc1cnc(C(C)(C)C)nc1)OC(C)C (stereo not drawn)", "0 (no)"],
  ["CCOP(=O)(NC(C)C)Oc1ccc(SC)c(C)c1 (stereo not drawn)", "0 (no)"],
  ["COP(=O)(OC)OC(Br)C(Cl)(Cl)Br (stereo not drawn)", "0 (no)"],
  ["CCCSP(=O)(OCC)Oc1ccc(Br)cc1Cl (stereo not drawn)", "0 (no)"],
  ["CN1COCN(Cc2cnc(Cl)s2)C1=N[N+](=O)[O-]", "0 (no)"],
  ["CCc1cccc(CC)c1N(COC)C(=O)CCl", "0 (no)"],
  ["O=C(O)c1cc(Oc2ccc(C(F)(F)F)cc2Cl)ccc1[N+](=O)[O-]", "0 (no)"],
  ["CCOP(=O)(OCC)Oc1cc(C)nc(C(C)C)n1", "0 (no)"],
  ["CCOP(=S)(OCC)Oc1cc(C)nc(C(C)C)n1", "0 (no)"],
  ["COP(=O)(OC)SCn1c(=O)oc2cc(Cl)cnc21", "0 (no)"],
  ["FC(F)C(F)(F)OCC(Cn1cncn1)c1ccc(Cl)cc1Cl (stereo not drawn)", "1 (yes)"],
  ["COP(=O)(NC(C)=O)SC (stereo not drawn)", "0 (no)"],
  ["CC1(C(=O)Nc2ccc(O)c(Cl)c2Cl)CCCCC1", "0 (no)"],
  ["CCOP(=S)(OCC)Oc1ccc([N+](=O)[O-])cc1", "0 (no)"],
  ["CN(C)NC(=O)CCC(=O)O", "0 (no)"],
  ["CC(COc1ccc(Oc2ccccc2)cc1)Oc1ccccn1 (stereo not drawn)", "0 (no)"]
]}
